# target or system: T1, Recombinant human PSGL-1(ECD)-hFc1 (R&D Systems, Cat. 3345-PS) (human, UniProt Q14242 42-305)
# T1 construct: Bought; Gln42-Val295 counted on AAC50061; also called PSGL-1-Fc; PSGL-1-hFc1 chimera; not shown: human IgG1 Fc, Pro100-Lys330
# T1 sequence: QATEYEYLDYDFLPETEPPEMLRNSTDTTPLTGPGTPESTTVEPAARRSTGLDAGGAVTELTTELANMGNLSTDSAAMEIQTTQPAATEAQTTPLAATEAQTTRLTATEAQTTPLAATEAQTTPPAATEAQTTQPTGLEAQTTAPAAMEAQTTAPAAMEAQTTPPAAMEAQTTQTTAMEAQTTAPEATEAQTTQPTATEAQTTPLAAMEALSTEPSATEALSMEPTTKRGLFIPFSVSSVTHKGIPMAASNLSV
# experiment summary: blocking ELISA vs L-selectin-Fc
# Description: A typical selectin blocking ELISA assay involved coating high binding half-well plates (Corning, Cat. #3690) with 2.5 ug/mL/25 ul per well of recombinant PSGL-1-Fc protein (R&D Systems, Cat #3345-PS) in PBS, pH 7.4, overnight at 4° C. […] For each antibody, an IC50 value was determined from sigmoidal fitted titration curves.
Give % max Block for every item shown.
Kindly format the answer as number then unit.

Problem: Hello, please tell me recorded % max Block for this one: 2E12 (antibody, V domains shown, Mouse hybridoma mAb; only variable domains given) VH: QVQLQQSGAELARPGASVKLSCKASGYTFTNYGLNWVKQRTGQGLEWIGEIYPRSGNTYYNEKFKGKATLTADKSSSTAYMQLSSLTSEDSAVYFCATEGAYWGQGTLVTVSA VL: DIVMTQTPLTLSVTIGQPASISCKSSQSLLHGNGKTYLNWLLQRPGQSPKLLIYLVSKLESGIPDRFSGSGSGTDFTLEISRVEAEDLGIYYCLQSTHFPRTFGGGTKLEIK
Result: 0%

Problem: Hello, please tell me recorded % max Block for this one: 18F02 (antibody, V domains shown, From mouse immunisation; only variable domains given) VH: QVQLQQPGAELVKPGASVKLSCKASGYTFTSYWMHWVKQRPGQGLEWIGMIHPNSGRTNYNEKFKSKATLTVDKSSSTAYMQLSSLTSEDSAVYYCARSDYWGQGTTLTVSS VL: DIVMTQAAFSNPVTLGTSASISCRSSKSLLHSDGITYLYWFLQRPGQSPQLLIYRMSNLASGVPDRFSGSGSGTDFTLRISRVEAEDVGVYYCAQMLEFPRTFGGGTKLEIK
Result: 100%

Problem: Hello, please tell me recorded % max Block for this one: 5E12 (antibody, V domains shown, Mouse hybridoma mAb; only variable domains given) VH: EIQLQQSGAELVRPGASVKLSCTASGFNIKDDYIHWVKQRPEQGLEWIGRIDPANGNTKSAPKFQDKATITADTSSNTAYLHLSSLTSEDTAVYYCSIRFAYWGQGTLVTVSA VL: DVVMTQTPLSLSVSLGDQASISCRSSQSLVYRNGDTYLHWFLQKPGQSPKLLIYKVSNRFSGVPDRFSGSGSGTDFTLKISRVEAEDLGIYFCSQNTHVPYTFGGGTKLEIK
Result: 0%

Problem: Hello, please tell me recorded % max Block for this one: 03D07 (antibody, IgG4, V domains shown) VH: EVKLLESGGGLVQPGGSLRLSCAASGFTFSSYALSWVRQAPGKGLEWVSAISGSGGNTYYADSVKGRFTISRDNSKNTLYLQMNSLRAEDTAVYYCAKVVGATNYWGQGTLVTVSS VL: DIVMTQTPLSLPVTLGQPASISCRSSQSLVYSDGHTYLSWFHQRPGQSPRRLIYKVSIRDSGVPDRFSGSGSGTDFTLKISRVEAEDVGVYYCMQRLQIPLTFGGGTKVEIK
Result: 100%

Problem: Hello, please tell me recorded % max Block for this one: 19I01 (antibody, V domains shown, From mouse immunisation; only variable domains given; also called 19101) VH: EVQLVESGGGLVKPGGSRKLSCAASGFTFSDYGMHWVRQAPEKGLEWVAYISSGSSTIYYADTVKGRFTISRDNAKNTLFLQMTSLRSEDTAMYYCARGVDGYWGQGTTLTVSS VL: DVVMTQTPLSLPVSLGDQASISCRSSQSLVHSNGNTYLHWYLQKPGQSPKFLIYKVSNRFSGVPDRFSGSGSGTDFTLKISRVEAEDLGVYFCSQTTHVPLTFGAGTKLELK
Result: 100%

Problem: Hello, please tell me recorded % max Block for this one: 19N05 (antibody, V domains shown, From mouse immunisation; only variable domains given) VH: QIQLVQSGPELKKPGETVKISCKASGYTFTTYGMSWVKQAPGKGLKWMGWINTYSGVPTFADDFKGRFAFSLETSASTAYLQINNLKNEDTATFFCARNYYGNHYFDYWGQGTTLTVSS VL: DVQITQSPSYLAASPGETISINCRASNNINKYLAWYQEKPGKTNKLLIYSGSTLQSGIPSRFSGSGSGTDFTLTISSLEPEDFAMYHCQQHNYYPLTFGAGTKLELK
Result: 0%

Problem: Hello, please tell me recorded % max Block for this one: 18L13 (antibody, V domains shown, Mouse hybridoma mAb; only variable domains given) VH: EVQLQQSGAELVRPGASVKLSCTASGFNIKDDFMHWVKQRPEQGLEWIGRIDPASGKTEYVPKFQDKATLTADTSSNTAYLQLSSLTSEDTAVYYCARRIAYWGQGTLVTVSA VL: DVVMTQTPLTLSVTIGQPASISCKSSQSLLHSNGKTYLNWLLQRPGQSPKLLIYLVSKLESGLPDRFSGSGSGTDFSLKISRVEAEDLGVYYCLQTTHFPQTFGGGTKLEIK
Result: 0%

Problem: Hello, please tell me recorded % max Block for this one: 20I15 (antibody, V domains shown, From mouse immunisation; only variable domains given; also called 20115) VH: EVKLVESGGGLVQPGGSLSLSCAASGFTFTDYYMSWVRQPPGKALEWLGFIRNKANGYTTEYSASVKGRFTISRDNSQSILYLQMNALRAEDSATYYCARTYLRRGYFDVWGTGTTVTVSS VL: DIVLTQSPASLAVSLGQRATISCRASKSVSTSGYSYMHWFQQKPGQPPKLLIYLASNLESGVPARFSGSGSGTDFTLNIHPVEEEDAATYYCQHSRELPLTFGAGTKLELK
Result: 65%

Problem: Hello, please tell me recorded % max Block for this one: 9F9 (antibody, V domains shown, Control anti-PSGL-1 mAb, recombinant; only variable domains given; also called 9F6) VH: EVQLVETGGGLVQPKGSLKLSCAASGFTFNTNAMNWVRQAPGKGLEWVARIRSKSNNYATYYADSVKDRFTISRDDTQSMIYLQMNNLKTEDTGMYYCVRGGSYWYFDVWGAGTTVTVSS VL: DVLMTQTPLSLPVSLGDQASISCRSSQSIVNSNGNTYLEWYLQKPGQSPKLLIYKVSNRFSGVPDRFSGSGSGTDFTLKISRVEAEDLGVYYCFQGSHVPWTFGGGTKLEIK
Result: 100%

Problem: Hello, please tell me recorded % max Block for this one: 15A7 (antibody, V domains shown, Control mAb, recombinant; also called h15A7; 15A17) VH: EVQLVESGGGLVQPGGSLRLSCAASGFTFSSFGMHWVRQAPGKGLEWVAYINGGSSTIFYANAVKGRFTISRDNAKNTLYLQMNSLRAEDTAVYYCARYASYGGGAMDYWGQGTLVTVSS VL: DIQMTQSPSSLSASVGDRVTITCRSSQSIVHNDGNTYFEWYQQKPGKAPKLLIYKVSNRFSGVPSRFSGSGSGTHFTLTISSLQPEDFATYYCFQGSYVPLTFGQGTKVEIK
Result: 0%
